# System: ACHN renal
# assay text: NCI tumour cell line growth inhibition, 48 h
observed property: TGI

The examples below pair each entry with its known result.
COc1ccc2c(c1OC)C1=C(C2=O)c2cc3c(cc2CCN1)OCO3	> 100 µM
C=C1C(=O)OC2(C)C3CCC(C3)C12 (stereo not given)	> 100 µM
N#Cc1c(SCc2ccccc2)nc(-c2ccccc2)[nH]c1=S	63.3 µM
CN(C)CCCN1c2nc3ccccc3cc2Sc2cc3ccccc3nc21	2.94 µM
Cc1sc(C)c(Cc2c(C)sc(C)c2CCl)c1CCl	> 100 µM
C1CCN(c2nsc(N3CCCCC3)n2)CC1	> 100 µM

Query the reported TGI for ACHN renal; item: C/C(=N/NC(=S)Nc1ccccc1Cl)c1cccc(/C(C)=N\NC(=S)Nc2ccccc2Cl)n1
> 100 µM
